pIC50: recorded values
Test system: RKO
Experiment: cells
Conditions: Homo sapiens, 120 h
Description: Cytotoxicity against human RKO cells expressing wild type p53 assessed as cell viability after 5 days by MTT assay
pIC50: −log10 of the molar value.
readout.type: pIC50

[
  {
    "smiles.representation": "CCOc1cc(C(C)(C)C)ccc1C1=N[C@@](C)(c2ccc(Cl)cc2)[C@@](C)(c2ccc(Cl)cc2)N1C(=O)N1CCN(CCC(F)(F)F)CC1",
    "readout.type": "pIC50",
    "readout.qualifier": "=",
    "reading": 6.40
  },
  {
    "smiles.representation": "CCOc1cc(C(C)(C)C)ccc1C1=N[C@@](C)(c2ccc(Cl)cc2)[C@@](C)(c2ccc(Cl)cc2)N1C(=O)N1CCN(CCNC(C)=O)CC1",
    "readout.type": "pIC50",
    "readout.qualifier": "=",
    "reading": 6.52
  },
  {
    "smiles.representation": "CCOc1cc(C(C)(C)C)ccc1C1=N[C@@](CC)(c2ccc(Cl)cc2)[C@@](CC)(c2ccc(Cl)cc2)N1C(=O)N1CCN(CCCS(C)(=O)=O)CC1",
    "readout.type": "pIC50",
    "readout.qualifier": "=",
    "reading": 4.90
  },
  {
    "smiles.representation": "CCOc1cc(C(C)(C)C)ccc1C1=N[C@@](C)(c2ccc(Cl)cc2)[C@@](C)(c2ccc(Cl)cc2)N1C(=O)N1CCN(CCCS(C)(=O)=O)CC1",
    "readout.type": "pIC50",
    "readout.qualifier": "=",
    "reading": 6.40
  },
  {
    "smiles.representation": "CCOc1cc(C(C)(C)C)ccc1C1=N[C@@](C)(c2ccc(Cl)cc2)[C@@](C)(c2ccc(Cl)cc2)N1C(=O)N1CCN(CC(=O)N2CCCC2)CC1",
    "readout.type": "pIC50",
    "readout.qualifier": "=",
    "reading": 6.30
  },
  {
    "smiles.representation": "CCOc1cc(C(C)(C)C)ccc1C1=N[C@@](C)(c2ccc(Cl)cc2)[C@@H](c2ccc(Cl)cc2)N1C(=O)N1CCN(CCCS(C)(=O)=O)CC1",
    "readout.type": "pIC50",
    "readout.qualifier": "<",
    "reading": 4.52
  },
  {
    "smiles.representation": "CCOc1cc(C(C)(C)C)ccc1C1=N[C@@](C)(c2ccc(Cl)cc2)[C@@](C)(c2ccc(Cl)cc2)N1C(=O)N1CCNCC1",
    "readout.type": "pIC50",
    "readout.qualifier": "=",
    "reading": 6.30
  },
  {
    "smiles.representation": "CCOc1cc(C(C)(C)C)ccc1C1=N[C@@](C)(c2ccc(Cl)cc2)[C@@](C)(c2ccc(Cl)cc2)N1C(=O)N1CCN(CCO)CC1",
    "readout.type": "pIC50",
    "readout.qualifier": "=",
    "reading": 6.52
  }
]

----------
Tested on: SJSA-1
Experiment: cells
Conditions: Homo sapiens, SJSA-1, 120 h
Description: Cytotoxicity against human SJSA1 cells expressing wild type p53 assessed as cell viability after 5 days by MTT assay
pIC50: −log10 of the molar value.

[
  {
    "smiles.representation": "CCOc1cc(C(C)(C)C)ccc1C1=N[C@@](C)(c2ccc(Cl)cc2)[C@@](C)(c2ccc(Cl)cc2)N1C(=O)N1CCN(CCC(F)(F)F)CC1",
    "readout.qualifier": "=",
    "pIC50": 5.60
  },
  {
    "smiles.representation": "CCOc1cc(C(C)(C)C)ccc1C1=N[C@@](C)(c2ccc(Cl)cc2)[C@@](C)(c2ccc(Cl)cc2)N1C(=O)N1CCNC(=O)C1",
    "readout.qualifier": "=",
    "pIC50": 5.12
  },
  {
    "smiles.representation": "CCOc1cc(C(C)(C)C)ccc1C1=N[C@@](C)(c2ccc(Cl)cc2)[C@@](C)(c2ccc(Cl)cc2)N1C(=O)N1CCN(CCO)CC1",
    "readout.qualifier": "=",
    "pIC50": 6.70
  },
  {
    "smiles.representation": "CCOc1cc(C(C)(C)C)ccc1C1=N[C@@](C)(c2ccc(Cl)cc2)[C@@](C)(c2ccc(Cl)cc2)N1C(=O)N1CCN(CC(=O)N2CCCC2)CC1",
    "readout.qualifier": "=",
    "pIC50": 6.52
  },
  {
    "smiles.representation": "CCOc1cc(C(C)(C)C)ccc1C1=N[C@@](C)(c2ccc(Cl)cc2)[C@@](C)(c2ccc(Cl)cc2)N1C(=O)N1CCN(CCNS(C)(=O)=O)CC1",
    "readout.qualifier": "=",
    "pIC50": 6.70
  },
  {
    "smiles.representation": "CCOc1cc(C(C)(C)C)ccc1C1=N[C@@](C)(c2ccc(Cl)cc2)[C@@H](c2ccc(Cl)cc2)N1C(=O)N1CCN(CCCS(C)(=O)=O)CC1",
    "readout.qualifier": "=",
    "pIC50": 4.91
  },
  {
    "smiles.representation": "CCOc1cc(C(C)(C)C)ccc1C1=N[C@@](C)(c2ccc(Cl)cc2)[C@@](C)(c2ccc(Cl)cc2)N1C(=O)N1CCNCC1",
    "readout.qualifier": "=",
    "pIC50": 6.22
  },
  {
    "smiles.representation": "CCOc1cc(C(C)(C)C)ccc1C1=N[C@@](C)(c2ccc(Cl)cc2)[C@@](C)(c2ccc(Cl)cc2)N1C(=O)N1CCN(CCNC(C)=O)CC1",
    "readout.qualifier": "=",
    "pIC50": 7.00
  },
  {
    "smiles.representation": "CCOc1cc(C(C)(C)C)ccc1C1=N[C@@](C)(c2ccc(Cl)cc2)[C@@](C)(c2ccc(Cl)cc2)N1C(=O)N1CCN(C(C)=O)CC1",
    "readout.qualifier": "=",
    "pIC50": 6.52
  },
  {
    "smiles.representation": "CCOc1cc(C(C)(C)C)ccc1C1=N[C@@](C)(c2ccc(Cl)cc2)[C@@](C)(c2ccc(Cl)cc2)N1C(=O)N1CCCCC1",
    "readout.qualifier": "=",
    "pIC50": 5.14
  },
  {
    "smiles.representation": "CCOc1cc(C(C)(C)C)ccc1C1=N[C@@](C)(c2ccc(Cl)cc2)[C@@](C)(c2ccc(Cl)cc2)N1C(=O)N1CCN(CC(=O)N2CCOCC2)CC1",
    "readout.qualifier": "=",
    "pIC50": 6.70
  },
  {
    "smiles.representation": "CCOc1cc(C(C)(C)C)ccc1C1=N[C@@](CC)(c2ccc(Cl)cc2)[C@@](CC)(c2ccc(Cl)cc2)N1C(=O)N1CCN(CCCS(C)(=O)=O)CC1",
    "readout.qualifier": "<",
    "pIC50": 4.52
  },
  {
    "smiles.representation": "COc1ccc(C2=N[C@@H](c3ccc(Cl)cc3)[C@@H](c3ccc(Cl)cc3)N2C(=O)N2CCNC(=O)C2)c(OC(C)C)c1",
    "readout.qualifier": "=",
    "pIC50": 5.82
  },
  {
    "smiles.representation": "CCOc1cc(C(C)(C)C)ccc1C1=N[C@@](C)(c2ccc(Cl)cc2)[C@@](C)(c2ccc(Cl)cc2)N1C(=O)N1CCN(CCCS(C)(=O)=O)CC1",
    "readout.qualifier": "=",
    "pIC50": 6.52
  }
]
